Reference for the values: patent US11840497B2

System: Human dermal fibroblasts from Friedreich's Ataxia patients
Assay: Rescue of BSO-stressed FRDA fibroblasts (Example A)
Format: cell-based
Details: FRDA fibroblasts GM04078, 1 mM BSO, Calcein AM viability, experiment 1 of 3, read-out: EC50 Value 1
Method: Test samples, 4 reference compounds (idebenone, decylubiquinone, Trolox and α-tocopherol acetate), and solvent controls were tested for their ability to rescue FRDA fibroblasts stressed by addition of L-buthionine (S,R)-sulfoximine (BSO), as described in Jauslin et al., Hum. Mol. Genet. […] Mol. Genet. […] The viability of non-BSO treated fibroblasts was set as 100%, and the viability of the BSO- and compound-treated cells was calculated as relative to this value.
Please provide measured EC50 for the entries that follow.
Respond with the bare value in nM.

### Prompt For the compound CCCCCCCCCCC1=C(C)C(=O)C(OC)=C(OC)C1=O [decylubiquinone, reference compound] , what EC50 is on record?
### Response 50

### Prompt For the compound Cc1c(C)c2c(c(C)c1O)CCC(C)(C(=O)O)O2 (stereo not shown) [Trolox, reference compound] , what EC50 is on record?
### Response 9000

### Prompt For the compound COC1=C(OC)C(=O)C(CCCCCCCCCCO)=C(C)C1=O [Idebenone, reference compound] , what EC50 is on record?
### Response 1500

### Prompt For the compound CC(=O)Oc1c(C)c(C)c2c(c1C)CCC(C)(CCC[C@H](C)CCC[C@H](C)CCCC(C)C)O2 (stereo partly drawn) [alpha-tocopherol acetate, (+)-α-tocopherol acetate, reference compound] , what EC50 is on record?
### Response 400

* * *

test system: human dermal fibroblasts from LHON patients; test: Rescue of BSO-stressed fibroblasts from LHON patients (Example C); format: cell-based; settings: Fibroblast, LHON fibroblasts GM03858, screen as Example A, read-out: protection against LHON, EC50
pEC50: −log10 of the molar value.
Please provide measured pEC50 for the entries that follow.

### Prompt For the compound CC1=C(C)C(=O)C(CCC(C)(O)C(=O)NCc2cccc(F)c2)=C(C)C1=O (stereo not drawn) , what pEC50 is on record?
### Response > 7.00

### Prompt For the compound CC1=C(C)C(=O)C(CCC(C)(O)C(=O)NCc2ccccc2F)=C(C)C1=O (stereo not drawn) , what pEC50 is on record?
### Response > 7.00

### Prompt For the compound CC1=C(C)C(=O)C(CCC(C)(O)C(=O)Nc2ccc(Cl)cc2)=C(C)C1=O (stereo not drawn) , what pEC50 is on record?
### Response > 7.00

### Prompt For the compound CC1=C(C)C(=O)C(CCC(C)(O)C(=O)NCCCO)=C(C)C1=O (stereo not drawn) , what pEC50 is on record?
### Response > 7.00

### Prompt For the compound CC1=C(C)C(=O)C(CCC(C)(O)C(=O)NCc2ccc(F)cc2)=C(C)C1=O (stereo not drawn) , what pEC50 is on record?
### Response > 7.00

### Prompt For the compound CC1=C(C)C(=O)C(CCC(C)(O)C(=O)N2CCN(C(=O)c3ccccc3)CC2)=C(C)C1=O (stereo not drawn) , what pEC50 is on record?
### Response > 7.00

### Prompt For the compound CC1=C(C)C(=O)C(CCC(C)(O)C(=O)NCCCS(C)(=O)=O)=C(C)C1=O (stereo not drawn) , what pEC50 is on record?
### Response > 7.00

### Prompt For the compound CC1=C(C)C(=O)C(CCC(C)(O)C(=O)NCc2cccnc2)=C(C)C1=O (stereo not drawn) , what pEC50 is on record?
### Response > 7.00

### Prompt For the compound CC1=C(C)C(=O)C(CCC(C)(O)C(=O)NCCc2ccccc2F)=C(C)C1=O (stereo not drawn) , what pEC50 is on record?
### Response > 7.00

* * *

Please provide measured pEC50 for the entries that follow.
tested on: Human dermal fibroblasts from Friedreich's Ataxia patients; assay: Rescue of BSO-stressed FRDA fibroblasts (Example A); format: cell-based; conditions: FRDA fibroblasts GM04078, 1 mM BSO, Calcein AM viability, experiment 3 of 3, read-out: EC50 Value 3
Recall that pEC50 is obtained by taking minus log10 of the concentration measured in molar.

### Prompt For the molecule COC1=C(OC)C(=O)C(CCCCCCCCCCO)=C(C)C1=O [Idebenone, reference compound] , what pEC50 is on record?
### Response 6.00

### Prompt For the molecule Cc1c(C)c2c(c(C)c1O)CCC(C)(C(=O)O)O2 (stereo not shown) [Trolox, reference compound] , what pEC50 is on record?
### Response 5.10

### Prompt For the molecule CCCCCCCCCCC1=C(C)C(=O)C(OC)=C(OC)C1=O [decylubiquinone, reference compound] , what pEC50 is on record?
### Response 7.52

### Prompt For the molecule CC(=O)Oc1c(C)c(C)c2c(c1C)CCC(C)(CCC[C@H](C)CCC[C@H](C)CCCC(C)C)O2 (stereo partly drawn) [alpha-tocopherol acetate, (+)-α-tocopherol acetate, reference compound] , what pEC50 is on record?
### Response 6.46

* * *

tested on: Human dermal fibroblasts from Friedreich's Ataxia patients; test: Rescue of BSO-stressed FRDA fibroblasts (Example A); assay type: cell-based; settings: FRDA fibroblasts GM04078, 1 mM BSO, Calcein AM viability, average of three values, read-out: EC50 Average
recorded.metric: EC50

### Prompt For the molecule Cc1c(C)c2c(c(C)c1O)CCC(C)(C(=O)O)O2 (stereo not shown) [Trolox, reference compound] , what EC50 is on record?
### Response 8.7 µM

### Prompt For the molecule CC(=O)Oc1c(C)c(C)c2c(c1C)CCC(C)(CCC[C@H](C)CCC[C@H](C)CCCC(C)C)O2 (stereo partly drawn) [alpha-tocopherol acetate, (+)-α-tocopherol acetate, reference compound] , what EC50 is on record?
### Response 0.3 µM

### Prompt For the molecule CCCCCCCCCCC1=C(C)C(=O)C(OC)=C(OC)C1=O [decylubiquinone, reference compound] , what EC50 is on record?
### Response 0.038 µM

### Prompt For the molecule COC1=C(OC)C(=O)C(CCCCCCCCCCO)=C(C)C1=O [Idebenone, reference compound] , what EC50 is on record?
### Response 1.2 µM
